Recorded measurements of Survival (%), one per entry
Test system: foreskin cells in which senescence was induced by doxorubicin
measurement description: CellTiter-Glo cell viability of doxorubicin-induced senescent foreskin cells (Examples 1-2, 10, 11, 13; Tables 4, 63, 65)
Format: cell-based, human
recorded conditions: […] test compound; doxorubicin-induced senescent foreskin cells; CellTiter-Glo; 0 μM = 100
# unit: % | format: bare number

molecule | Survival (%)
CCOC(=O)[C@@H](N)CCC(=O)N[C@@H](CSCc1ccccc1)C(=O)N[C@@H](C(=O)OCC)c1ccccc1 [LX-2602, Ezatiostat, reference compound] | 92.5
O=C(O)CC([S-])C(=O)O.[Au+] (stereo not drawn) [LX-202, Aurothiomalate, reference compound] | 7.6

So for CC(=O)OC[C@H]1O[C@@H]([S-])[C@H](OC(C)=O)[C@@H](OC(C)=O)[C@@H]1OC(C)=O.CCP(CC)CC.[Au+] [LX-201, Auranofin, reference compound] , the logged Survival (%) turned out to be 3
